# study target: E. coli adenosine deaminase (Escherichia coli)
# Construct: recombinant
# Sequence (P22333 whole entry): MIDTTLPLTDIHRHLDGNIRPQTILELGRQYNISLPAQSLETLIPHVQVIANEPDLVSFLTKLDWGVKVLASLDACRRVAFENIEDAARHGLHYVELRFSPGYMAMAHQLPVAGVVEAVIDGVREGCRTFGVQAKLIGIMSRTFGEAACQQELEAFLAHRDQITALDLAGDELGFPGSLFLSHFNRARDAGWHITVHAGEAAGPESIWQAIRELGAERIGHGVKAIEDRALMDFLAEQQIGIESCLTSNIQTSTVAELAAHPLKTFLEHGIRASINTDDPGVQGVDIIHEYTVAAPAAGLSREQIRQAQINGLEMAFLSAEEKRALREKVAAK
# measurement notes: inhibition of adenosine deamination, HPLC, Lineweaver-Burk
pKi: −log10 of the molar value.
Collected pKi values appear next to each entry.

| compound | pKi |
| --- | --- |
| Nc1nc(Cl)nc2c1ncn2[C@@H]1O[C@H](CO)[C@@H](O)[C@@H]1O [compound 16] | 3.89 |
| NC(=O)[C@H](CO)Nc1nc(Cl)nc2c1ncn2[C@@H]1O[C@H](CO)[C@@H](O)[C@@H]1O [4b] | 2.92 |
| Nc1nc(Cl)nc2c1ncn2[C@@H]1O[C@H](CO)[C@@H](O)[C@H]1O [compound 15, 2-chloradenosine] | 4.11 |
